target_system: Sodium-dependent noradrenaline transporter (Homo sapiens, UniProt P23975)
Sequence (P23975 whole entry): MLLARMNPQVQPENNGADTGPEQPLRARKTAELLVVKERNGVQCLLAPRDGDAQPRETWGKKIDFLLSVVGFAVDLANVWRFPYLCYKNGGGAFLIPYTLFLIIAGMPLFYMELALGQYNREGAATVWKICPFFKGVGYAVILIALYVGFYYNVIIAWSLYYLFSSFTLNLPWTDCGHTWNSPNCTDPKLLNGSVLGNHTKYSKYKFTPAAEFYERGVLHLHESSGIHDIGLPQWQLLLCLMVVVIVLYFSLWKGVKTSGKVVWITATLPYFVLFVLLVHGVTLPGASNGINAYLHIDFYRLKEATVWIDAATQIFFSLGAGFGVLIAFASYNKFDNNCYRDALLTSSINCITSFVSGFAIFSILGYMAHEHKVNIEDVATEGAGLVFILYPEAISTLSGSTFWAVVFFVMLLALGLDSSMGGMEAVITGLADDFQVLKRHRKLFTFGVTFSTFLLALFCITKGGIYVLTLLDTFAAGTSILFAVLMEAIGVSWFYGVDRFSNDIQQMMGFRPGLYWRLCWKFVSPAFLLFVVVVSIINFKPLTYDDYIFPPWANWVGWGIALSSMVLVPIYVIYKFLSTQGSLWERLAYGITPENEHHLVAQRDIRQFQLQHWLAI
method_notes: Displacement of [125I]RTI-55 from human Norepinephrine transporter expressed in HEK cells
Type: cell-based, HEK293
pKi: −log10 of the molar value.
readout_kind: pKi

• OC1(c2ccc(Cl)cc2)c2ccccc2C2=NCCCN21 (stereo unspecified) = 7.74

###

target_system: Monoamine transporters; serotonin & dopamine (Homo sapiens) (UniProt P31645+Q01959)
Sequence (P31645 whole entry, looked up): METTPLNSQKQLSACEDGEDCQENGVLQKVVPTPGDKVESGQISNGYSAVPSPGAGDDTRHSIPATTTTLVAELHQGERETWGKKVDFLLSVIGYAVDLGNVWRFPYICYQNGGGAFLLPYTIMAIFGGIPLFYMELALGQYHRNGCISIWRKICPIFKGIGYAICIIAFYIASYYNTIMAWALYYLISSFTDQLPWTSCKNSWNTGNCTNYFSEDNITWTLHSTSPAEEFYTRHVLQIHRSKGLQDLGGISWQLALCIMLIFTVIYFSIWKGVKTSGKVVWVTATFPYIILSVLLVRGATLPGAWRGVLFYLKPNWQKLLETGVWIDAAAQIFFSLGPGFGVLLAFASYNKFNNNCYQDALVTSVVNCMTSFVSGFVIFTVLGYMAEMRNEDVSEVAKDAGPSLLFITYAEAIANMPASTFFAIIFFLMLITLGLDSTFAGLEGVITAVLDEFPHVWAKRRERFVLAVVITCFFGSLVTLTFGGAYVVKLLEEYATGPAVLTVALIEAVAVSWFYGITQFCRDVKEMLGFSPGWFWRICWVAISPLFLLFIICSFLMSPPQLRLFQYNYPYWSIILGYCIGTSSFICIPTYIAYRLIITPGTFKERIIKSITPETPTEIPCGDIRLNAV
Sequence (Q01959 whole entry, looked up): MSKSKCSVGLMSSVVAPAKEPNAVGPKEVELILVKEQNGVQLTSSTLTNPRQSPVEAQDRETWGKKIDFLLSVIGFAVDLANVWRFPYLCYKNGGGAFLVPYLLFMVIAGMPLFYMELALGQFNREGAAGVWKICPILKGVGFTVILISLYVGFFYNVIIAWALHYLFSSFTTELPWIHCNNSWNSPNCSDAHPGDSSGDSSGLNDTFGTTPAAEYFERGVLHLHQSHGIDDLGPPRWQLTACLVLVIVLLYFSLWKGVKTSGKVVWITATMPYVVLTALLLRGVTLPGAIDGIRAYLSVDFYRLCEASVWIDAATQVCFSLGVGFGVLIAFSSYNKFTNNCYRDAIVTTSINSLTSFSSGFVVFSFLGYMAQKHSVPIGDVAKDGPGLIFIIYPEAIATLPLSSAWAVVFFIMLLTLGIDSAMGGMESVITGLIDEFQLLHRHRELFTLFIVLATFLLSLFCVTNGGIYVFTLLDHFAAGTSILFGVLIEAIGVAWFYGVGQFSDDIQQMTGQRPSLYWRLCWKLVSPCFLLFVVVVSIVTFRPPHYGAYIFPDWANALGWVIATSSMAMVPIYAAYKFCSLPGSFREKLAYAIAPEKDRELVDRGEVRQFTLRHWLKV
method_notes: Selectivity ratio as ratio of IC50 value against SERT to that of DAT
Type: protein assay
Where Ratio equals or exceeds 4, the correct label is criterion met; where it does not, the label is criterion not met.

• OC1(c2ccc(Cl)cc2)c2ccccc2C2=NCCCN21 (stereo unspecified) = criterion met
• OC1(c2ccc3ccccc3c2)c2ccccc2C2=NCCN21 (stereo unspecified) = criterion not met
• OC1(c2ccc(Cl)cc2)c2ccc3ccccc3c2C2=NCCN21 (stereo unspecified) = criterion met
• OC1(c2ccc(Cl)cc2)c2ccc3ccccc3c2C2=NCCCN21 (stereo unspecified) = criterion not met
